Target: T1, ferroportin endogenously expressed on T47D cells (HTB 133, ATCC) (human, UniProt Q9NP59 1-571)
T1 sequence (looked up): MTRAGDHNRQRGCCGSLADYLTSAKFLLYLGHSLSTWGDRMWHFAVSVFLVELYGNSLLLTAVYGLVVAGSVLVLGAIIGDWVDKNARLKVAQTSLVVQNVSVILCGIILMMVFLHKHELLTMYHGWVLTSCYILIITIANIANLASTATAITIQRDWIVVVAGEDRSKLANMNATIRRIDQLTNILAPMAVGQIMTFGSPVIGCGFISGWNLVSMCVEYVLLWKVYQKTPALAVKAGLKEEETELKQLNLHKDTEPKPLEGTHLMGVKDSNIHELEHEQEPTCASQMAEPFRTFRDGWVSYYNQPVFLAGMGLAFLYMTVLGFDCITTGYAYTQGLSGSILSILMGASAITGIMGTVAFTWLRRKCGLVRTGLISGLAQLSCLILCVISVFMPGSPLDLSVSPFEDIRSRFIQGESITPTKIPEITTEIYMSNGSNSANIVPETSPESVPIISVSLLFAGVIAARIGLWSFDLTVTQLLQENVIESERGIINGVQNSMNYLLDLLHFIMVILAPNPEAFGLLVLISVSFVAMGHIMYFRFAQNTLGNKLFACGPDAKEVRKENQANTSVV
Test: cell-based or functional assay
Non-standard residues stand in square brackets, D forms with d. Groups on a side chain read outwards from the residue. *: point of attachment. Ala(1H-tetrazol-5-yl) = N[C@@H](Cc1nnn[nH]1)C(=O)O; Dip = N[C@H](C(=O)O)C(c1ccccc1)c1ccccc1; His(τ-Me) = Cn1cnc(C[C@H](N)C(=O)O)c1; Palmitoyl = CCCCCCCCCCCCCCCC(=O)*; β3hF = N[C@H](CC(=O)O)Cc1ccccc1; NMeK = CN[C@@H](CCCCN)C(=O)O; Isovaleryl = CC(C)CC(=O)*; Orn = NCCC[C@H](N)C(=O)O; Ahx = NCCCCCC(=O)O
Measurement Kind: T47D MSA IC50 (nM)

{"columns": ["Binder", "T47D MSA IC50 / nM"],
 "data": [
  ["Isovaleryl-[Ala(1H-tetrazol-5-yl)]T[His(τ-Me)][Dip]PAI[NMeK][β3hF]K([Ahx-Palmitoyl])-NH2 (SMILES CCCCCCCCCCCCCCCC(=O)NCCCCCC(=O)NCCCC[C@H](NC(=O)C[C@H](Cc1ccccc1)NC(=O)[C@H](CCCCN)N(C)C(=O)[C@@H](NC(=O)[C@H](C)NC(=O)[C@@H]1CCCN1C(=O)[C@@H](NC(=O)[C@H](Cc1cn(C)cn1)NC(=O)[C@@H](NC(=O)[C@H](Cc1nnn[nH]1)NC(=O)CC(C)C)[C@@H](C)O)C(c1ccccc1)c1ccccc1)[C@@H](C)CC)C(N)=O) [Isovaleric Acid-[Tet1]-T-[(1Me)His]-[Dpa]-P-A-I-[(N-Me)Lys]-[bhPhe]-[Lys(Ahx_Palm)]-NH2]", 3.94]
]}

[A] DiIsoAmylAmine_CH2_Acid-TH[Dip]PAIK([Ahx-Palmitoyl])[β3hF][dK]-NH2 [[DiIsoAmylAmine_CH2_Acid]-T-H-[Dpa]-P-A-I-[Lys(Ahx_Palm)]-[bhPhe]-[(D)Lys]-NH2]
[B] XKTHXPAIEXXR (N-term Isovaleric Acid; Dpa4; bhPhe9; Lys(Ahx_Palm)10; C-term NH2; K and E cyclized (lactam)) [Isovaleric Acid-K-T-H-[Dpa]-P-A-I-E-[bhPhe]-[Lys(Ahx_Palm)]-R-NH2; (K and E cyclized)]
[C] Isovaleryl-[Orn]TH[Dip]PAID[β3hF][Lys(Ahx_Palm)]R-NH2 (lactam (positions not given here); not fully specified (bridges)) [Isovaleric Acid-Orn-T-H-[Dpa]-P-A-I-D-[bhPhe]-[Lys(Ahx_Palm)]-R-NH2]
[D] XETHXPXX (N-term Isovaleric Acid; Dpa4; Lys(IsoGlu_Palm)6; C-term N_Butyl_Phe) [Isovaleric Acid-E-T-H-[Dpa]-P-[Lys(IsoGlu_Palm-N_Butyl_Phe]
Prompt line: List the 4 entries from lowest T47D MSA IC50 to highest T47D MSA IC50 value. Hello, could you send the labels back in the order asked? Thank you.
Response line: B, C, A, D
